- Target Entity: Cst6 (UniProt P40535)
- Sequence (P40535 whole entry): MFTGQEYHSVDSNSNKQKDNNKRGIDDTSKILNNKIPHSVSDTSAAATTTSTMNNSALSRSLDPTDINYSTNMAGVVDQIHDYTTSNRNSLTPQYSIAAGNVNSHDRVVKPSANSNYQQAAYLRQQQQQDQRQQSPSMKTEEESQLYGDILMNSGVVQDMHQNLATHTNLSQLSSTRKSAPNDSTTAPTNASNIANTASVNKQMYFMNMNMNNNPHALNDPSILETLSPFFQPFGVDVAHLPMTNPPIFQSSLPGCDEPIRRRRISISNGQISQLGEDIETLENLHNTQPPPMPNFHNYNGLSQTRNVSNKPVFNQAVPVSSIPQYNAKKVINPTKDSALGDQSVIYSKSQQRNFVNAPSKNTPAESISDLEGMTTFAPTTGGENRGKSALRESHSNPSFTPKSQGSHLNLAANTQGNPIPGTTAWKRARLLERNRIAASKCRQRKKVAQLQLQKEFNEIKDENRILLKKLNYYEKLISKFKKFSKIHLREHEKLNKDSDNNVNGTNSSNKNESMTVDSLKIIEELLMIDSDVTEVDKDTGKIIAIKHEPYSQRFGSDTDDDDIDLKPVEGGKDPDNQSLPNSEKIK
- Protocol Details: PBM E-score (8-mer binding enrichment) (E-score (-0.5 to 0.5)); higher = stronger / more preferred TF binding
- Measurement Context: protein concentration: 200 nM; construct: GST-DNA-binding domain
In all, about 33,000 sequences were measured (“E-score (-0.5 to 0.5)”: median about -0.016, highest 2% from about 0.31 on). This is one part of a sample in which the highest values are shown more often than they occur.
Classification by PBM E-score follows these ranges: lower level = under -0.01, middle level = from -0.01 up to 0.3, upper level = 0.3 and over

sequence_entry=GCGTAAAC class="middle level"
sequence_entry=GGGACGAA class="lower level"
sequence_entry=CCGTAAAC class="middle level"
sequence_entry=CAGTGACG class="upper level"
sequence_entry=AAGACGAG class="lower level"
sequence_entry=GACGTTAC class="upper level"
sequence_entry=AAGTAAAT class="middle level"
sequence_entry=ATGTAAAA class="middle level"
sequence_entry=ATGACGAA class="upper level"
sequence_entry=AAGTGACA class="upper level"
sequence_entry=ATGACGAG class="upper level"
sequence_entry=AGGTAAAT class="middle level"
sequence_entry=CAGTGACC class="lower level"
sequence_entry=ACTGCAGA class="lower level"
sequence_entry=AAGTAAAG class="lower level"

---

- Target Entity: Cst6 (UniProt P40535)
- Protocol Details: PBM E-score (8-mer binding enrichment) (E-score (-0.5 to 0.5)); higher = stronger / more preferred TF binding
- Measurement Context: protein concentration: 200 nM; construct: GST-DNA-binding domain
In all, about 33,000 sequences were measured (“E-score (-0.5 to 0.5)”: median about -0.016, highest 2% from about 0.31 on). The sample as a whole holds a higher share of the highest values than the screen did.
Kind request: treat 0.3 as inclusive, so PBM E-score at 0.3 or higher is True, anything lower is False.

sequence_entry=ATATGTCA class=True
sequence_entry=CTATGTCA class=True
sequence_entry=GGTCACCA class=False
sequence_entry=CGTCACCA class=True

---

- Target Entity: Cst6 (UniProt P40535)
- Protocol Details: PBM E-score (8-mer binding enrichment) (E-score (-0.5 to 0.5)); higher = stronger / more preferred TF binding
- Measurement Context: protein concentration: 200 nM; construct: GST-DNA-binding domain
Over roughly 33,000 sequences, “E-score (-0.5 to 0.5)” has its median near -0.016; the highest 2% begin near 0.31. Shown is part of a subset that was picked to be rich in the highest values.
Each record here notes measured PBM E-score.
Metric Name: PBM E-score

sequence_entry=ATAATAAT reported_value=0.238
sequence_entry=ACATGCAT reported_value=0.0333
sequence_entry=GTAAATAA reported_value=0.176
sequence_entry=TCAATCGA reported_value=0.249
sequence_entry=AAAATCGA reported_value=0.106
sequence_entry=CACCGTCA reported_value=0.314
sequence_entry=AGTGACAC reported_value=0.274
sequence_entry=GTATTGAC reported_value=0.148
sequence_entry=AAAATCGG reported_value=-0.00802
sequence_entry=ATCCATGG reported_value=-0.138
sequence_entry=CGGGCCGA reported_value=-0.167
sequence_entry=AAACAGGT reported_value=0.0221
sequence_entry=CAACGTTC reported_value=-0.13
sequence_entry=CGTTTAAG reported_value=0.0111
sequence_entry=TAACGTAA reported_value=0.452
sequence_entry=ACTCCGAA reported_value=-0.169
sequence_entry=CAAACCAG reported_value=-0.0964
sequence_entry=CATCACCA reported_value=0.372
sequence_entry=ATAATAAA reported_value=0.325
sequence_entry=CCATGGCG reported_value=0.102
sequence_entry=CAACGTAC reported_value=0.0567
sequence_entry=GAAAAGAC reported_value=0.222
sequence_entry=ATTCACAC reported_value=0.134
sequence_entry=ACCGACGG reported_value=-0.0433
sequence_entry=GACCGTCA reported_value=0.137
sequence_entry=CAACGTTG reported_value=0.31
sequence_entry=CAGGCCAA reported_value=-0.178
sequence_entry=ATAATAAC reported_value=0.205
sequence_entry=CTTATAAA reported_value=0.138
sequence_entry=CAACGTAA reported_value=0.329
sequence_entry=ATGTCGCA reported_value=-0.0497
sequence_entry=ATCAGTTC reported_value=-0.0191
sequence_entry=GCAGGCAA reported_value=-0.0304
sequence_entry=CCTTCTCG reported_value=-0.264
sequence_entry=AGTGACAT reported_value=0.459
sequence_entry=ATAGAAGG reported_value=-0.208
sequence_entry=CATGACGC reported_value=0.455
sequence_entry=TATCACCA reported_value=0.123
sequence_entry=CGGAGAGC reported_value=-0.0924
sequence_entry=CGGCACGC reported_value=0.0275
sequence_entry=AAACGTTG reported_value=-0.106
sequence_entry=CATCACCC reported_value=0.308
sequence_entry=AAAGCTTC reported_value=-0.172

---

- Target Entity: Cst6 (UniProt P40535)
- Protocol Details: PBM E-score (8-mer binding enrichment) (E-score (-0.5 to 0.5)); higher = stronger / more preferred TF binding
- Measurement Context: protein concentration: 200 nM; construct: GST-DNA-binding domain
Whole data set: some 33,000 sequences, median “E-score (-0.5 to 0.5)” near -0.016, cut for the highest 2% near 0.31. The sample as a whole holds a higher share of the highest values than the screen did.
Quick reference: PBM E-score of the listed items.
Metric Name: PBM E-score

sequence_entry=TTAATAAA metric_name="PBM E-score" reported_value=0.307
sequence_entry=AGATTCAC metric_name="PBM E-score" reported_value=-0.122
sequence_entry=GGTATGAC metric_name="PBM E-score" reported_value=0.191
sequence_entry=CCCTAACA metric_name="PBM E-score" reported_value=0.127
sequence_entry=CATGCGAA metric_name="PBM E-score" reported_value=0.111
sequence_entry=GCAGCCCC metric_name="PBM E-score" reported_value=-0.349
sequence_entry=ATCAAAGG metric_name="PBM E-score" reported_value=-0.0902
sequence_entry=TAAATAAA metric_name="PBM E-score" reported_value=0.289
sequence_entry=GAAAGGTC metric_name="PBM E-score" reported_value=-0.196
sequence_entry=TATGCTAA metric_name="PBM E-score" reported_value=0.0861
sequence_entry=CGACGTCA metric_name="PBM E-score" reported_value=0.491
sequence_entry=AAGCCTTA metric_name="PBM E-score" reported_value=-0.0547
sequence_entry=CCGTCGGA metric_name="PBM E-score" reported_value=-0.114
sequence_entry=CAGCGGTA metric_name="PBM E-score" reported_value=0.0522
sequence_entry=AAGTCTGC metric_name="PBM E-score" reported_value=-0.226
sequence_entry=CCGTACTC metric_name="PBM E-score" reported_value=-0.113
sequence_entry=CGACGTCG metric_name="PBM E-score" reported_value=-0.0227
sequence_entry=CAGGATGC metric_name="PBM E-score" reported_value=-0.125
sequence_entry=GTAATAAA metric_name="PBM E-score" reported_value=0.352
sequence_entry=TAGCCCGA metric_name="PBM E-score" reported_value=-0.177
sequence_entry=GGTCGTCA metric_name="PBM E-score" reported_value=0.272
sequence_entry=AGACGTCA metric_name="PBM E-score" reported_value=0.484
sequence_entry=ACTAAAGC metric_name="PBM E-score" reported_value=0.0156

---

- Target Entity: Cst6 (UniProt P40535)
- Protocol Details: PBM E-score (8-mer binding enrichment) (E-score (-0.5 to 0.5)); higher = stronger / more preferred TF binding
- Measurement Context: protein concentration: 200 nM; construct: GST-DNA-binding domain
The full ranking holds about 33,000 sequences; the median of “E-score (-0.5 to 0.5)” is about -0.016, and the highest 2% start at about 0.31. Many of the other results were omitted from the sample, so the highest values are more common in it than they were.
Metric Name: PBM E-score

sequence_entry=CATGACAC reported_value=0.328
sequence_entry=TCACCAAA reported_value=0.326
sequence_entry=GACGTCGA reported_value=0.292
sequence_entry=CTCCTCAG reported_value=-0.231
sequence_entry=TAAATTAA reported_value=0.127
sequence_entry=ATTACGAA reported_value=0.305
sequence_entry=CTGCCGCA reported_value=0.0518
sequence_entry=GTTACGCA reported_value=0.266
sequence_entry=AATGACGT reported_value=0.495
sequence_entry=GGGCCGCA reported_value=-0.0641
sequence_entry=CTACGCAA reported_value=0.119
sequence_entry=AATGTCAC reported_value=0.308
sequence_entry=ACCTGCTA reported_value=-0.0708
sequence_entry=GTCTCTTA reported_value=-0.00905
sequence_entry=CAAGGCAG reported_value=-0.119
sequence_entry=GACGTCAA reported_value=0.479
sequence_entry=CTCACTCA reported_value=0.0247
sequence_entry=ACAAAAGT reported_value=0.164
sequence_entry=ACTGACGC reported_value=0.243
sequence_entry=ATACGTTC reported_value=0.0426
sequence_entry=GTAGCCGA reported_value=-0.191
sequence_entry=GAGCCGCA reported_value=0.28
sequence_entry=AACGTCCA reported_value=0.0436
sequence_entry=AGTCACGC reported_value=-0.07
sequence_entry=ACTACCCT reported_value=-0.111
sequence_entry=ACCTTTGA reported_value=-0.156
sequence_entry=AGCCTTAT reported_value=-0.0913
sequence_entry=ACGCGTCC reported_value=-0.129
sequence_entry=CGCTGCAC reported_value=-0.0108
sequence_entry=GCGCGTAA reported_value=0.224
sequence_entry=CTTCCATC reported_value=-0.0839
sequence_entry=AGGGCTAG reported_value=-0.242
sequence_entry=AGTAACTG reported_value=0.00693
sequence_entry=TAACCCTA reported_value=-0.197
sequence_entry=GCTCCGCC reported_value=-0.185
sequence_entry=GTCACTTA reported_value=0.331
sequence_entry=AATGTCAT reported_value=0.356
sequence_entry=ACTGTCAT reported_value=0.0752
sequence_entry=AACGTCGG reported_value=-0.174
sequence_entry=AATGTAAG reported_value=0.192
sequence_entry=ATTACGCA reported_value=0.398
sequence_entry=AATGACCT reported_value=0.25
sequence_entry=AGCTGCGA reported_value=-0.198
sequence_entry=CAGTTGGC reported_value=-0.175
sequence_entry=GGGGCTTA reported_value=-0.346
sequence_entry=AATGTAAA reported_value=0.258
sequence_entry=CCGCGTCA reported_value=0.34
sequence_entry=GCGCGTCA reported_value=0.381
sequence_entry=TCGTATCA reported_value=0.127
sequence_entry=CACGTCAG reported_value=0.449
sequence_entry=ACTCTGGA reported_value=0.109
sequence_entry=CGACACAC reported_value=0.0466
sequence_entry=ACCATCTA reported_value=-0.207
sequence_entry=AGGGCTTG reported_value=-0.0617
sequence_entry=AGAAGTCT reported_value=-0.118
sequence_entry=TATGACCA reported_value=0.202
sequence_entry=AATGTCAG reported_value=-0.00168
sequence_entry=GCGCGTTA reported_value=0.0245
sequence_entry=AACGTCAG reported_value=0.371
sequence_entry=CATATATA reported_value=0.272
sequence_entry=GATGTCAC reported_value=0.448
sequence_entry=AATAGCCC reported_value=-0.132
sequence_entry=AAATGAAA reported_value=0.322
sequence_entry=ACGCGTCT reported_value=-0.0602
sequence_entry=GTTACGAA reported_value=0.16
sequence_entry=GGGCTGTA reported_value=-0.256
sequence_entry=TAACCAGA reported_value=-0.0457
sequence_entry=ACGCGTAA reported_value=0.129
sequence_entry=AGTATATC reported_value=0.0089
sequence_entry=AACGTCAA reported_value=0.401
sequence_entry=ACACCAAA reported_value=0.212
sequence_entry=ACGAACAC reported_value=0.138
sequence_entry=CGTCACGC reported_value=0.441
sequence_entry=AACGTCGA reported_value=0.133
sequence_entry=CAGCCCAC reported_value=-0.191
sequence_entry=TCGCGTAA reported_value=0.314
sequence_entry=GCTGTCAC reported_value=0.0464
sequence_entry=ACGCCCGT reported_value=-0.0034
sequence_entry=GGAGCATA reported_value=-0.00076
sequence_entry=TCAGAGGA reported_value=-0.193
sequence_entry=CCTCACGC reported_value=0.22
sequence_entry=CATCGCCA reported_value=0.0609
sequence_entry=ACGCGTCA reported_value=0.381
sequence_entry=AAGAACAG reported_value=0.0582
